Cited source for all entries: ChEMBL document CHEMBL4359924

Protocol notes: Fraction unbound in rat brain
Type: ADME, tissue-based
Documented fraction unbound across a set of compounds

• Cc1nnc2ccc(C(=O)NC3CN(c4ncc(Cl)cc4F)C3)cc2c1C = 0.009
• Cc1nnc2ccc(C(=O)NC3CN(c4ncc(C#N)cc4Cl)C3)cc2c1C = 0.042
• Cc1nnc2ccc(C(=O)NC3CN(c4ncc(F)cc4Cl)C3)cc2c1C = 0.036

Fill in the blank: the reported fraction unbound of Cc1nnc2ccc(C(=O)NC3CN(c4ccc(F)c(F)c4)C3)cc2c1C is ____.
0.022

Tell me the measured fraction unbound of Cc1nnc2ccc(C(=O)NC3CN(c4cc(Cl)ncc4Cl)C3)cc2c1C , please.
0.036

Which fraction unbound value belongs to COc1cc(N2CC(NC(=O)c3ccc4nnc(C)c(C)c4c3)C2)c(Cl)cn1 ?
0.023

---

Target or system: Muscarinic acetylcholine receptor M4 (Homo sapiens) (UniProt P08173)
Sequence (P08173 whole entry, looked up): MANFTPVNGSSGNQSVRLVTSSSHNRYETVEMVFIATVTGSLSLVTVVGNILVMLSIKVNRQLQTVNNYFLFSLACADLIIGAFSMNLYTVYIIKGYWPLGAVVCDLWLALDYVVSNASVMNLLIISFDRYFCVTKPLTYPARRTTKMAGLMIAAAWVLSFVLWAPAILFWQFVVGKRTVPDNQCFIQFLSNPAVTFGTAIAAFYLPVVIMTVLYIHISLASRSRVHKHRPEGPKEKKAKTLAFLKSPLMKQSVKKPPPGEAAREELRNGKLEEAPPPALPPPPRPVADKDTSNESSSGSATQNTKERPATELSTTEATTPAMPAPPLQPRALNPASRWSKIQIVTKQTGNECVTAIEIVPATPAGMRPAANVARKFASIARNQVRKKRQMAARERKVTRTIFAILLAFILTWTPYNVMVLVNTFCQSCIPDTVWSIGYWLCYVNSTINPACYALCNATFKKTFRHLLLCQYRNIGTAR
Protocol notes: Positive allosteric modulation of human M4 receptor expressed in CHO cells co-expressing Gqi5 assessed as increase in acetylcholine-induced calcium mobilization incubated with EC20 ACh for 140 secs and subsequent EC80 Ach addition further incubated for 120 secs by Fluo-4-AM dye based fluorescence …
Outcome measure: Emax (%)
Dear colleague, please return just the value in %, with no unit written.

- Cc1nnc2ccc(C(=O)NC3CN(c4ncc(F)cc4Cl)C3)cc2c1C: 80
- Cc1nnc2ccc(C(=O)NC3CN(c4ncc(Cl)cc4F)C3)cc2c1C: 82
- Cc1nnc2ccc(C(=O)NC3CN(c4ccc(F)c(F)c4)C3)cc2c1C: 82

Look up Emax: Cc1nnc2ccc(C(=O)NC3CN(c4cnc(C5CC5)cn4)C3)cc2c1C
80
